Entry source: patent US8192717B2

assayed-target: Aβ(1-40) aggregates (Homo sapiens, UniProt P05067)
Construct: The amyloid β protein (Human, 1-40) [HCl form]; purchased Peptide Institute, Inc
Sequence (P05067 672-711 limits assumed): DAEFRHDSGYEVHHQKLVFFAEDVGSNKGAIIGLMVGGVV
method-summary: In vitro binding of [125I]-labelled compounds to Aβ aggregates (filtration, radioactivity on filter)
measurement-context: [125I]-labelled compound; radioactivity remaining on filter in presence vs absence of Aβ aggregates
recorded-endpoint: bindability to the Aβ aggregates

CNc1ccc(-c2cc(=O)c3cc(I)ccc3o2)cc1 [compound 10, 6-iodo-4′-methylaminoflavone] | high bindability
CNc1ccc(C=Cc2cc(=O)c3cc(I)ccc3o2)cc1 [compound 47, 6-iodo-4′-methylaminostyrylchromone] | high binding affinity
COc1cc(/C=C/C(=O)c2cccc(I)c2)ccc1O [compound 31] | high binding affinity
COc1ccc(-c2cc(=O)c3cc(I)ccc3o2)cc1 [compound 19, 6-iodo-4′-methoxyflavone] | high bindability
